B1: Ankyrin repeat and SOCS box protein 14, residues 532 to 572; numbered along this chain, A6NK59 (parent)
chain: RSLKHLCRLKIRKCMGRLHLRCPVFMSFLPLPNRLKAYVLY

- Variants of: B1
- PROTOCOL: abundance fitness (aPCA) (normalised: wild type 0, dead -1); higher = more abundant; growth selection in yeast, the domain comes from the species named
- RUN_PARAMETERS: Homo sapiens
ATTRIBUTE_MEASURED: abundance fitness

Solved entries:
C22N -0.719
R21L 0.196
V24K 0.449
N33R 0.044
F25D 0.197
R21I 0.207

Reported abundance fitness, variant `L29Y` : ____
-0.53

Another variant to check: `R1C`
-0.113

Another variant to check: `I11T`
-0.722
